Measured Eff. % of individual entries
System: Plasmopara viticola
Assay: Plasmopara test (grapevines)/preventive
Type: in vivo
Conditions: preventive spray, 10 ppm of active ingredient, evaluated 6 days after inoculation
Protocol: Solvent: 24.5 parts by weight of acetone • 24.5 parts by weight of dimethylacetamide Emulsifier: 1 part by weight of alkylaryl polyglycol ether To produce a suitable preparation of active compound, 1 part by weight of active compound is mixed with the stated amounts of solvent and emulsifier, and the concentrate is diluted with water to the desired concentration. […] The test is evaluated 6 days after the inoculation. […]
Use % as the unit, but write only the number.

compound	Eff. %, %
CC1c2ccccc2COC1C(=O)Nc1cccc(CO/N=C(/c2ccccc2)c2noc(=O)n2C)n1 (stereo not shown) [Example 291]	77

q: Return Eff. % (reported value) for this compound: Cn1c(/C(=N\OCc2cccc(NC(=O)OCCC3CCCCC3)n2)c2ccccc2)noc1=O [Example 5]
a: 88

q: Supply recorded Eff. % for Cn1c(/C(=N\OCc2cccc(NC(=O)C(C)(C)C)n2)c2ccccc2)noc1=O [Example 148] here.
a: 100

q: Specify Eff. % for Cn1c(/C(=N\OCc2csc(NC(=O)C3CCc4ccccc4O3)n2)c2ccccc2)noc1=O (stereo not shown) [Example 11] and stop.
a: 98

###

Test system: Plasmopara viticola
Assay: Plasmopara test (grapevines)/preventive
Type: in vivo
Details: preventive spray, 10 ppm of active ingredient, evaluated 6 days after inoculation
# key: entry, value: Eff. %
The answer is to be given in %; state only the numeric part.

# annotated cases, reported Eff. % shown
compound	tested-system	value-units	Eff. %
Cn1c(/C(=N\OCc2cccc(NC(=O)c3ccccc3)n2)c2ccccc2)noc1=O [Example 54]	Plasmopara viticola	%	93
CCCCOC(=O)Nc1nc(CO/N=C(/c2ccccc2)c2noc(=O)n2C)cs1 [Example 14]	Plasmopara viticola	%	96

q: State its Eff. %: Cn1c(/C(=N\OCc2cccc(NC(=O)OC(C)(C)C)n2)c2cccc(F)c2)noc1=O [Example 206]
a: 81

q: // Input: C#CCCCCC(=O)Nc1cccc(CO/N=C(/c2ccccc2)c2noc(=O)n2C)n1 [Example 37] . Output its Eff. % only.
a: 80

q: # return recorded Eff. % for input CCCCC(=O)Nc1cccc(CO/N=C(/c2ccccc2)c2noc(=O)n2C)n1 [Example 15]
a: 97

q: // Input: COc1cccc(OCC(=O)Nc2cccc(CO/N=C(/c3ccccc3)c3noc(=O)n3C)n2)c1 [Example 51] . Output its Eff. % only.
a: 91

q: Using known records, supply Eff. % for C#CCCCC(=O)Nc1cccc(CO/N=C(/c2ccccc2)c2noc(=O)n2C)n1 [Example 302]
a: 92

q: Given the compound Cc1ccc(C)c(C(=O)Nc2nc(CO/N=C(/c3ccccc3)c3noc(=O)n3C)cs2)c1 [Example 336] , write its reported Eff. %.
a: 91

###

Details: pH 2.7
Marks after values point to notes of the source that are not given here.
endpoint: LogP

Illustrative cases are given below, each with its answer.
compound	endpoint	assay-value
Cn1c(/C(=N\OCc2cccc(NC(=O)OC3CCCC3)n2)c2ccccc2)noc1=O	LogP	4.09 [a]
Cn1c(/C(=N\OCc2cccc(NC(=O)c3ccco3)n2)c2ccccc2)noc1=O	LogP	3.13 [a]
Cn1c(/C(=N\OCc2cccc(NC(=O)Oc3ccccc3)n2)c2ccccc2)noc1=O	LogP	3.73 [a]
Cn1c(/C(=N\OCc2cccc(NC(=O)COc3ccc(F)cc3)n2)c2ccccc2)noc1=O	LogP	3.73 [a]

q: Give LogP for the following compound: Cn1c(/C(=N\OCc2cccc(NC(=O)CCCl)n2)c2ccccc2)noc1=O
a: 3.02 [a]

q: Please supply the value of reported LogP for the item Cn1c(C(=NOCc2cccc(NC(=O)OCC3CCCO3)n2)c2ccccc2)noc1=O (centres unmarked)
a: 3.11 [a]

q: Given the compound Cn1c(/C(=N\OCc2cccc(NC(=O)c3cc(F)cc(F)c3)n2)c2ccccc2)noc1=O , write its reported LogP.
a: 3.92 [a]

q: Return reported LogP. Input compound: CC(OC(=O)Nc1cccc(CON=C(c2ccccc2)c2noc(=O)n2C)n1)C1CCCC1 (centres unmarked)
a: 4.82 [a]

###

A collection of compounds and their measured LogP
Conditions: pH 2.7
Marks after values point to notes of the source that are not given here.

q: Return reported LogP. Input compound: COc1ccccc1C(=O)Nc1nc(CO/N=C(/c2ccccc2)c2noc(=O)n2C)cs1 [Example 91]
a: 3.71 [a]

q: Give the reported value of LogP for this record: Cc1ccc(OC(=O)Nc2cccc(CO/N=C(/c3ccccc3)c3noc(=O)n3C)n2)cc1 [compound 425]
a: 4.03 [a]

q: Fill in LogP for record Cn1c(C(=NOCc2cccc(NC(=O)c3ccc(Cl)cc3)n2)c2ccccc2)noc1=O [Example 245]
a: 4.01 [a]

q: Give a short answer stating reported LogP for Cn1c(C(=NOCc2cccc(NC(=O)OCc3cccc(F)c3)n2)c2ccccc2)noc1=O [compound 501] .
a: 4.01 [a]

###

Reported LogP values for the following molecules.
Conditions: pH 2.7
Marks after values point to notes of the source that are not given here.

Sample answers from the record:
molecule	LogP
Cn1c(/C(=N\OCc2cccc(NC(=O)OCCC#N)n2)c2ccccc2)noc1=O	2.78 [a]
Cc1ccc(CC(=O)Nc2cccc(CO/N=C(/c3ccccc3)c3noc(=O)n3C)n2)cc1	3.85 [a]
CCCCC(=O)Nc1cccc(CO/N=C(/c2cccc(F)c2F)c2noc(=O)n2C)n1	3.55 [a]
CC(C)CCC(=O)Nc1cccc(CO/N=C(/c2ccccc2)c2noc(=O)n2C)n1	3.85 [a]
CC(C)CC(=O)Nc1cccc(CO/N=C(/c2ccccc2)c2noc(=O)n2C)n1	3.44 [a]
CC(C)COC(=O)Nc1nc(CO/N=C(/c2ccccc2)c2noc(=O)n2C)cs1	3.71 [a]
CCCC(=O)Nc1nc(CON=C(c2ccccc2)c2noc(=O)n2C)cs1	3.02 [a]
Cn1c(/C(=N\OCc2csc(NC(=O)C3COc4ccccc4O3)n2)c2ccccc2)noc1=O (stereo not drawn)	3.62 [a]
Cn1c(/C(=N\OCc2cccc(NC(=O)Cc3ccccc3Cl)n2)c2ccccc2)noc1=O	3.76 [a]
Cc1cccc(/C(=N/OCc2cccc(N(C(=O)OC(C)(C)C)C(=O)OC(C)(C)C)n2)c2noc(=O)n2C)c1	4.77 [a]

q: Tell me its LogP given Cc1ccccc1CCOC(=O)Nc1cccc(CO/N=C(/c2ccccc2)c2noc(=O)n2C)n1 as the entry.
a: 4.51 [a]

q: Annotate the molecule COc1cccc(/C(=N/OCc2cccc(NC(=O)OC(C)(C)C)n2)c2noc(=O)n2C)c1 with its measured LogP.
a: 3.99 [a]

q: Give LogP for the following molecule: Cn1c(/C(=N\OCc2csc(NC(=O)COc3ccc(Cl)cc3)n2)c2ccccc2)noc1=O
a: 3.85 [a]

q: Determine its reported LogP: COc1cccc(OCC(=O)Nc2cccc(CO/N=C(/c3ccccc3)c3noc(=O)n3C)n2)c1
a: 3.73 [a]

q: Item CC(OCc1ccccc1)C(=O)Nc1cccc(CO/N=C(/c2ccccc2)c2noc(=O)n2C)n1 (stereo not drawn) : provide LogP
a: 4.15 [a]

q: Could you please provide reported LogP for CCCCCOC(=O)Nc1cccc(CO/N=C(\c2ccccc2)c2noc(=O)n2C)n1 ? Thanks!
a: 4.24 [a]

q: Answer with the recorded LogP of C#CCCOC(=O)Nc1cccc(CO/N=C(/c2ccccc2F)c2noc(=O)n2C)n1 only.
a: 3.21 [a]

q: Please report LogP for the following molecule: C#CCCOC(=O)Nc1cccc(CO/N=C(/c2ccccc2)c2noc(=O)n2CC#N)n1
a: 3.31 [a]

q: Consider the molecule Cn1c(/C(=N\OCc2cccc(NC(=O)c3cccc(F)c3)n2)c2ccccc2)noc1=O . State its measured LogP.
a: 3.69 [a]

q: Query LogP for CC=CCCCOC(=O)Nc1cccc(CON=C(c2ccccc2)c2noc(=O)n2C)n1 [compound 509]
a: 4.44 [a]

q: Specify LogP for Cc1ccc(C(=NOCc2csc(NC(=O)OC3CCCCC3)n2)c2noc(=O)n2C)cc1 and stop.
a: 4.48 [a]

q: Specify LogP for COc1ccc(/C(=N/OCc2cccc(N)n2)c2noc(=O)n2C)cc1 and stop.
a: 1.35 [a]

q: Give the reported value of LogP for this record: Cn1c(/C(=N\OCc2cccc(NC(=O)OCc3cccnc3)n2)c2ccccc2)noc1=O
a: 2.17 [a]

###

Settings: pH 2.7
Marks after values point to notes of the source that are not given here.
endpoint: LogP

// worked examples, LogP included
compound	LogP
Cn1c(C(=NOCc2cccc(N(C(=O)OC(C)(C)C)C(=O)OC(C)(C)C)n2)c2cccc(F)c2)noc1=O	4.51 [a]
NC(=NO)C(=NOCc1cccc(N)n1)c1cccc(F)c1 (mixture of isomers)	0.56 [a]
Cn1c(/C(=N\OCc2cccc(NC(=O)c3ccc(I)cc3)n2)c2ccccc2)noc1=O	4.29 [a]

q: Provide measured LogP value, entry: C=C(C)OC(=O)Nc1cccc(CO/N=C(/c2ccccc2)c2noc(=O)n2C)n1
a: 3.37 [a]

q: Supply LogP value. Item: Cn1c(/C(=N\OCc2csc(NC(=O)C3CCc4ccccc4O3)n2)c2ccccc2)noc1=O (centres unmarked)
a: 3.94 [a]

q: Fill in reported LogP for this entry: CCCCCC(=O)Nc1cccc(CO/N=C(/c2cccc(C)c2)c2noc(=O)n2C)n1
a: 4.24 [a]

q: Given CCCCC(=O)Nc1nc(CO/N=C(/c2ccccc2)c2noc(=O)n2C)cs1 , respond with its LogP.
a: 3.37 [a]

q: Provide one value: measured LogP of CC/C=C/CCOC(=O)Nc1cccc(CO/N=C(/c2ccccc2)c2noc(=O)n2C)n1
a: 4.46 [a]
